Where do the numbers come from? From patent EP0170926B1.

ASSAY_PROTOCOL: in vivo
CONDITION_INFO: po
Please provide measured TD50 for the entries that follow.

{"columns": ["MOLECULE", "TD50"],
 "data": [
  ["CCOC(=O)C1=C[C@]2(CC)CCCN3CCc4c(n1c1cc(NC(=O)c5ccccc5)ccc41)[C@@H]32", "> 180 mg/kg"]
]}

Below: the item to evaluate.
Given item CCC1(c2ccccc2)NC(=O)N(C)C1=O (centres unmarked) [Mephenitoin, reference compound] , the value recorded as its TD50 is 78.6 mg/kg
